Attribution: patent US12660819B2

System: Abutilon theophrasti (ABUTH)
Test Name: Pre-emergence Test (glasshouse, percentage damage to the plant)
Format: in vivo
Conditions Used: 1000 g/ha unless otherwise stated, five-point scale
# percentage damage to the plant, ABUTH annotations

Worked set:
- Chemical String: "CCn1c(C)c(-c2ccc(C(F)(F)F)cc2)c(=O)c(C(=O)O)c1-c1ccnc(Cl)c1"
  Result: "1 (1=0-20%)"
- Chemical String: "CCn1c(C)c(-c2ccc(OC)c(OC)c2)c(=O)c(C(=O)O)c1-c1ccc(Cl)c(Cl)c1"
  Result: "2 (2=21-40%)"
- Chemical String: "CCn1c(-c2ccc(Cl)c(Cl)c2)c(C(=O)OC)c(=O)c(-c2ccc(Cl)cc2)c1C(F)(F)F"
  Result: 0
- Chemical String: "CCn1c(C)c(-c2cc(F)cc(C#N)c2)c(=O)c(C(=O)O)c1-c1ccc(Cl)c(Cl)c1"
  Result: "1 (1=0-20%)"
- Chemical String: "CCn1c(C)c(-c2ccc(F)c(C#N)c2)c(=O)c(C(=O)O)c1-c1ccc(Cl)cc1"
  Result: "1 (1=0-20%)"
- Chemical String: "CCn1c(C)c(-c2cc(Cl)c(OC)c(OC)c2)c(=O)c(C(=O)O)c1-c1ccc(Cl)c(Cl)c1"
  Result: "1 (1=0-20%)"
- Chemical String: "CCn1c(C)c(-c2ccc(Cl)c(C#N)c2)c(=O)c(C(=O)O)c1-c1ccc(Cl)cc1"
  Result: 0

Then this compound:
Please look up its percentage damage to the plant, ABUTH: CCn1c(C)c(-c2cc(C)cs2)c(=O)c(C(=O)O)c1-c1ccc(Cl)c(Cl)c1
2 (2=21-40%)

---

Test system: Abutilon theophrasti (ABUTH)
Test Name: Pre-emergence Test (glasshouse, percentage damage to the plant)
Type: in vivo
Conditions Used: 1000 g/ha unless otherwise stated, five-point scale
# percentage damage to the plant, ABUTH annotations

Worked set:
- Chemical String: "CCn1c(C)c(-c2ccc(COC)cc2)c(=O)c(C(=O)O)c1-c1ccc(Cl)c(Cl)c1"
  percentage damage to the plant, ABUTH: "2 (2=21-40%)"
- Chemical String: "CCn1c(C)c(-c2ccc(Cl)cc2F)c(=O)c(C(=O)O)c1-c1ccc(Cl)c(Cl)c1"
  percentage damage to the plant, ABUTH: "5 (5=81-100%)"

Please look up its percentage damage to the plant, ABUTH: CCn1c(C)c(-c2cccc(Cl)c2)c(=O)c(C(=O)O)c1-c1ccnc(Cl)c1
1 (1=0-20%)

CCn1c(C)c(-c2cc(F)cc(C#N)c2)c(=O)c(C(=O)O)c1-c1ccc(Cl)cc1 , same question.
0

CCn1c(C)c(-c2ccc(OC)c(F)c2)c(=O)c(C(=O)O)c1-c1ccc(Cl)c(Cl)c1 , same question.
3 (3=41-60%)

CCn1c(C)c(-c2cc(F)c(OC)c(Cl)c2)c(=O)c(C(=O)O)c1-c1ccc(Cl)c(Cl)c1 , same question.
1 (1=0-20%)

CCn1c(C)c(-c2cccc(C(F)(F)F)c2)c(=O)c(C(=O)O)c1-c1ccnc(Cl)c1 , same question.
1 (1=0-20%)

CCn1c(C)c(-c2ccc(C(F)(F)F)c(Cl)c2)c(=O)c(C(=O)O)c1-c1ccc(Cl)c(Cl)c1 , same question.
1 (1=0-20%)

---

# percentage damage to the plant, ABUTH annotations
Test system: Abutilon theophrasti (ABUTH)
Test Name: Pre-emergence Test (glasshouse, percentage damage to the plant)
Assay type: in vivo
Conditions Used: 1000 g/ha unless otherwise stated, five-point scale

Worked set:
- Compound: "CCn1c(C)c(-c2cc(F)c(F)c(F)c2)c(=O)c(C(=O)O)c1-c1ccc(Cl)c(Cl)c1"
  Target Or Test System: "Abutilon theophrasti (ABUTH)"
  percentage damage to the plant, ABUTH: "2 (2=21-40%)"
- Compound: "CCn1c(C)c(-c2ccn(C)c(=O)c2)c(=O)c(C(=O)O)c1-c1ccc(Cl)c(Cl)c1"
  Target Or Test System: "Abutilon theophrasti (ABUTH)"
  percentage damage to the plant, ABUTH: "1 (1=0-20%)"
- Compound: "CCn1c(C)c(-c2cc(F)cc(Cl)c2)c(=O)c(C(=O)O)c1-c1ccc(Cl)c(Cl)c1"
  Target Or Test System: "Abutilon theophrasti (ABUTH)"
  percentage damage to the plant, ABUTH: "1 (1=0-20%)"

Please look up its percentage damage to the plant, ABUTH: CCn1c(C)c(-c2ccc(C(F)(F)F)c(Cl)c2)c(=O)c(C(=O)O)c1-c1ccc(Cl)cc1 [Compound 170]
0

CCn1c(C)c(-c2ccc(Cl)cc2)c(=O)c(C(=O)O)c1-c1ccc(Cl)cc1 , same question.
3 (3=41-60%)

CCn1c(C)c(-c2cnc3c(c2)OC(F)(F)O3)c(=O)c(C(=O)O)c1-c1ccc(Cl)c(Cl)c1 , same question.
3 (3=41-60%)

CCn1c(C)c(-c2cc(OC)ccc2F)c(=O)c(C(=O)O)c1-c1ccc(Cl)cc1 , same question.
3 (3=41-60%)

CCn1c(C)c(-c2cc(C(F)(F)F)ccc2Cl)c(=O)c(C(=O)O)c1-c1ccc(Cl)cc1 , same question.
0
